# experiment-notes: Cmax in rat
# Assay type: ADME, organism-based
# run-parameters: in vivo
value-kind: Cmax (ng/mL)
Report only the number, with the unit ng/mL understood.

Consider the compound shown here: CN(C)CCn1ccc2ccc(C3(O)CCSCC3)cc21 What is its recorded Cmax?
538

Origin of values: ChEMBL document CHEMBL1145755
